target.desc: Sigma non-opioid intracellular receptor 1 (Cavia porcellus)
Sequence (Q60492 whole entry): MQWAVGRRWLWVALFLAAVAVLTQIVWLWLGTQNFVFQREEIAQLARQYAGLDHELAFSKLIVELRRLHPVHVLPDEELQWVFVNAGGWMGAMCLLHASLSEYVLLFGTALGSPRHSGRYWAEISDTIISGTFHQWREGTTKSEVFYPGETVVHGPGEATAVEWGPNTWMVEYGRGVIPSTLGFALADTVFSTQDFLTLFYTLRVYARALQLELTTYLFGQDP
procedure.text: Displacement of [3H]-(+)-pentazocine from sigma-1 receptor in guinea pig brain homogenates
pKi: −log10 of the molar value.

{"smiles.data": "OCC[C@@H]1CN(CC2CCCCC2)CCN1Cc1ccc(-c2ccccc2)cc1", "pKi": 8.11}
{"smiles.data": "OCC[C@H]1CN(CC2CCCCC2)CCN1Cc1ccc(-c2ccccc2)cc1", "pKi": 8.46}
